- Study System: Sushi domains (SD1/2) protein of the GABAB1a (GB1a) subunit, recombinant
- Sequence (Q9Z0U4 29-158): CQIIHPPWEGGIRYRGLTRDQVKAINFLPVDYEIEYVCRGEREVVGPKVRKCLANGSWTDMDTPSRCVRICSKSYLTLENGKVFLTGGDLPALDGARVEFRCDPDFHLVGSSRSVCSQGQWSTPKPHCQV
- Method: FP competition
Non-standard residues stand in square brackets, D forms with d. NMeV = CN[C@H](C(=O)O)C(C)C
Quantity Kind: Ki (nM)

Some binders with known Ki results, for comparison:
Binder	Ki (nM)
Ac-PWAIVWG[dP]TVSRED-NH2 [PWAIVWGpTVSRED]	6860
Ac-PWAIVWGPTVSRED-NH2 [PIANPWT (Ac-…-NH2)]	762
Ac-PWAIVWGPT[NMeV]SRED-NH2 (SMILES CC[C@H](C)[C@H](NC(=O)[C@H](C)NC(=O)[C@H](Cc1c[nH]c2ccccc12)NC(=O)[C@@H]1CCCN1C(C)=O)C(=O)N[C@H](C(=O)N[C@@H](Cc1c[nH]c2ccccc12)C(=O)NCC(=O)N1CCC[C@H]1C(=O)N[C@H](C(=O)N(C)[C@H](C(=O)N[C@@H](CO)C(=O)N[C@@H](CCCNC(=N)N)C(=O)N[C@@H](CCC(=O)O)C(=O)N[C@@H](CC(=O)O)C(N)=O)C(C)C)[C@@H](C)O)C(C)C) […(N-Me-V)SRED]	1780

A = Ac-PWAIVWGPTVSREDGGD-NH2
B = Ac-EEDDSDVWWG-NH2
C = Ac-ETEFIAW[dA]PTGDED-NH2 [ETEFIAWaPTGDED]
D = Ac-EEDDSDVWW-NH2
Prompt: Form: Sort by [Ki] Order [ ascending ] List the labels in the requested order.
Response: A, D, C, B
(A: 716 nM, D: 1790 nM, C: 5400 nM, B: 12800 nM)
